Assay: Ratio of test compound IC50 to polymyxin B IC50 for cytotoxicity against human HK2 cells incubated for 24 hrs by resazurin blue dye based assay
Assay type: cell-based
Settings: HK-2 cells, read-out: Ratio IC50
MEASURED_METRIC: selectivity ratio at 24 h

SMI | REPORTED_MEASUREMENT
CC(C)C[C@@H]1NC(=O)[C@@H](CC2CCCCC2)NC(=O)[C@H](CCN)NC(=O)[C@@H](NC(=O)[C@H](CN)NC(=O)[C@@H](NC(=O)C[C@H](CN)Cc2ccccc2)[C@@H](C)O)CCNC(=O)[C@H]([C@@H](C)O)NC(=O)[C@H](CCN)NC(=O)[C@H](CCN)NC1=O | 5.2
CC[C@H](C)CCCCC(=O)N[C@@H](CCN)C(=O)N[C@H](C(=O)N[C@@H](CCN)C(=O)N[C@H]1CCNC(=O)[C@H]([C@@H](C)O)NC(=O)[C@H](CCN)NC(=O)[C@H](CCN)NC(=O)[C@H](CC(C)C)NC(=O)[C@@H](Cc2ccc(-c3ccccc3)cc2)NC(=O)[C@H](CCN)NC1=O)[C@@H](C)O | 0.14
CC(C)C[C@@H]1NC(=O)[C@@H](CC2CCCCC2)NC(=O)[C@H](CCN)NC(=O)[C@@H](NC(=O)[C@H](CCN)NC(=O)[C@@H](NC(=O)C[C@H](CN)Cc2ccccc2)[C@@H](C)O)CCNC(=O)[C@H]([C@@H](C)O)NC(=O)[C@H](CCN)NC(=O)[C@H](CCN)NC1=O | 2.4
CC(C)C[C@@H]1CNC[C@@H](C(=O)N[C@H](C(=O)N[C@@H](CN)C(=O)N[C@H]2CCNC(=O)[C@H]([C@@H](C)O)NC(=O)[C@H](CCN)NC(=O)[C@H](CCN)NC(=O)[C@H](CC(C)C)NC(=O)[C@@H](Cc3ccc(-c4ccccc4)cc3)NC(=O)[C@H](CCN)NC2=O)[C@@H](C)O)C1 | 1.2
